subject of test: GluN1/GluN2B-ΔNTD receptors (Rattus norvegicus (GluN1); Mus musculus (GluN2B), UniProt P35439+Q01097)
protocol text: TEVC on Xenopus oocytes, GluN2B NTD-deleted receptors
Type: cell-based
conditions used: 365 nm PSS; read-out: IC50 on GluN1/GluN2B-ΔNTD receptors pre-illuminated with 365 nm
pIC50: −log10 of the molar value.
outcome measure: pIC50

smi: c1ccc(/N=N/c2ccc(CCNc3ccncc3)cc2)cc1
measured value: 4.60

====

A collection of compounds and their measured UV/dark IC50 ratio (365 nm PSS vs dark)
subject of test: GluN1/GluN2B NMDA receptors (UniProt P35439+Q01097)
Construct: expressed in transfected cells; host or cells: Xenopus laevis oocytes (nuclear cDNA injection)
Sequence (Q01097 27-1482, other chains not shown): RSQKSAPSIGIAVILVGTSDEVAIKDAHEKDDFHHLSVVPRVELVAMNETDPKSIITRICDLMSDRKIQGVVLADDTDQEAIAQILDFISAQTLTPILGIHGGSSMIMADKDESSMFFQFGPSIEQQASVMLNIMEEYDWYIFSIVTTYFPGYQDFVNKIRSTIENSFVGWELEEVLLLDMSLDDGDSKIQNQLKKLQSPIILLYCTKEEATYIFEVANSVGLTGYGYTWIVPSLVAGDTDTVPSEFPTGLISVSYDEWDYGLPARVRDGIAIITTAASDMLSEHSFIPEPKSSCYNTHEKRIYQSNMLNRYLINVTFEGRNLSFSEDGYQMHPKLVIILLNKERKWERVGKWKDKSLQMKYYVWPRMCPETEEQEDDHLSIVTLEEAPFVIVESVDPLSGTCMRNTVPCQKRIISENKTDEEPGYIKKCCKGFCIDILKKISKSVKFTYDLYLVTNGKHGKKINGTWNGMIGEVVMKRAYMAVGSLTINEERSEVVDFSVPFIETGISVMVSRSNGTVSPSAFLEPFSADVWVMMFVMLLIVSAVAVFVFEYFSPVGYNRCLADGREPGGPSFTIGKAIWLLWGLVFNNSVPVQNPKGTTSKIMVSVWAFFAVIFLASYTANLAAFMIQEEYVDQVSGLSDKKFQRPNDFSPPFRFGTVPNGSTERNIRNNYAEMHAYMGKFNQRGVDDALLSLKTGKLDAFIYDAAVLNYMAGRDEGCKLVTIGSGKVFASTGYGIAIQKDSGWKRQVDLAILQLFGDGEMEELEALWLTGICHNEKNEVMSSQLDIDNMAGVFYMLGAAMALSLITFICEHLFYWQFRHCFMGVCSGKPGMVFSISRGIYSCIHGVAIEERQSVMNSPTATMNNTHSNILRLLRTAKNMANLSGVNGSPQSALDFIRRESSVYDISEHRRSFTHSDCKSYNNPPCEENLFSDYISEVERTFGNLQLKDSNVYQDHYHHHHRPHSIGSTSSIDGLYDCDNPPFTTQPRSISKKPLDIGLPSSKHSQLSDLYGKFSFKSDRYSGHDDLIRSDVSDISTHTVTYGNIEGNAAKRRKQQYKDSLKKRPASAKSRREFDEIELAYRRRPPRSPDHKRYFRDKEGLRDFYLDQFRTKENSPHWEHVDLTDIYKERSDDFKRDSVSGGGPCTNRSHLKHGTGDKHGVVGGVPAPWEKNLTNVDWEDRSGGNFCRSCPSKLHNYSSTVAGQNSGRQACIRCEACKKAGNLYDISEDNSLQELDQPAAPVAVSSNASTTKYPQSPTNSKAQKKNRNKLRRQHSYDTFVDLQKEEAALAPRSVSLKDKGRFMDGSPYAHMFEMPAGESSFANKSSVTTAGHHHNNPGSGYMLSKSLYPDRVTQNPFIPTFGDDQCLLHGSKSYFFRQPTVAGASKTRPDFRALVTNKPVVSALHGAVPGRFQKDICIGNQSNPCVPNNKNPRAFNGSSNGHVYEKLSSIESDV
protocol text: TEVC electrophysiology on Xenopus oocytes expressing wt GluN1/GluN2B NMDARs
Assay type: cell-based, rat GluN1, mouse GluN2B
conditions used: preilluminated in solution, Xenopus oocytes

compound: CS(=O)(=O)Nc1ccc2nc(Cc3ccc(/N=N/c4ccccc4)cc3)[nH]c2c1
UV/dark IC50 ratio (365 nm PSS vs dark) [fold]: 1.3

compound: Nc1ccnc(/N=N/c2ccccc2)c1 [OptoNAM-1, (E)-2-(phenyldiazenyl)pyridin-4-amine]
UV/dark IC50 ratio (365 nm PSS vs dark) [fold]: 3.4

compound: Cc1cc(N)nc(/N=N/c2ccccc2)c1
UV/dark IC50 ratio (365 nm PSS vs dark) [fold]: 4.9

compound: c1ccc(/N=N/c2ccc(CCNc3ccncc3)cc2)cc1
UV/dark IC50 ratio (365 nm PSS vs dark) [fold]: 4.5

====

subject of test: GluN1/GluN2B NMDA receptors (UniProt P35439+Q01097)
Construct: expressed in transfected cells; host or cells: Xenopus laevis oocytes (nuclear cDNA injection)
protocol text: TEVC electrophysiology on Xenopus oocytes expressing wt GluN1/GluN2B NMDARs
Assay type: cell-based, rat GluN1, mouse GluN2B
conditions used: control curve of the ifenprodil competition experiment; read-out: IC50 in the dark in absence of ifenprodil
From the text: The activity of OptoNAM-3 was functionally monitored by electrophysiology on Xenopus oocytes (see Methods). To assess the light-dependent effect, we tested the activities of the dark PSS (mostly trans) and the UV PSS (mostly cis, see above) separately. […]
outcome measure: IC50 (nM)

compound: c1ccc(/N=N/c2ccc(CCNc3ccncc3)cc2)cc1 [OptoNAM-3]
measured value: 460

====

subject of test: GluN1/GluN2B NMDA receptors (UniProt P35439+Q01097)
Construct: expressed in transfected cells; host or cells: Xenopus laevis oocytes (nuclear cDNA injection)
protocol text: TEVC electrophysiology on Xenopus oocytes expressing wt GluN1/GluN2B NMDARs
Format: cell-based, rat GluN1, mouse GluN2B
conditions used: Sup. Fig. 2G; trans isomer; source: this paper; read-out: activity (Ki or IC50)
pIC50: −log10 of the molar value.
outcome measure: pIC50

compound: Nc1ccnc(/N=N/c2ccccc2)c1 [OptoNAM-1, (E)-2-(phenyldiazenyl)pyridin-4-amine]
measured value: 4.96
//
compound: Cc1cc(N)nc(/N=N/c2ccccc2)c1
measured value: 4.62

====

subject of test: GluN1/GluN2B NMDA receptors (UniProt P35439+Q01097)
Construct: expressed in transfected cells; host or cells: Xenopus laevis oocytes (nuclear cDNA injection)
protocol text: TEVC electrophysiology on Xenopus oocytes expressing wt GluN1/GluN2B NMDARs
Format: cell-based, rat GluN1, mouse GluN2B
conditions used: dark PSS (trans); Xenopus oocytes; read-out: IC50 on GluN1/GluN2B receptors in the dark
pIC50: −log10 of the molar value.
A collection of compounds and their measured pIC50
outcome measure: pIC50

compound: CS(=O)(=O)Nc1ccc2nc(Cc3ccc(/N=N/c4ccccc4)cc3)[nH]c2c1 [OptoNAM-4]
outcome measure: pIC50
measured value: 7.62
//
compound: c1ccc(/N=N/c2ccc(CCNc3ccncc3)cc2)cc1 [OptoNAM-3]
outcome measure: pIC50
measured value: 6.42

====

subject of test: GluN1/GluN2B NMDA receptors (UniProt P35439+Q01097)
Construct: expressed in transfected cells; host or cells: Xenopus laevis oocytes (nuclear cDNA injection)
protocol text: TEVC electrophysiology on Xenopus oocytes expressing wt GluN1/GluN2B NMDARs
Format: cell-based, rat GluN1, mouse GluN2B
conditions used: 365 nm PSS; 100 µM glutamate + glycine; Xenopus oocytes; read-out: IC50 on GluN1/GluN2B receptors, preilluminated with 365 nm
A collection of molecules and their measured IC50

molecule: c1ccc(/N=N/c2ccc(CCNc3ccncc3)cc2)cc1
endpoint unit: µM
IC50: 1.7
--
molecule: Cc1cc(N)nc(/N=N/c2ccccc2)c1
endpoint unit: µM
IC50: 117
--
molecule: Nc1ccnc(/N=N/c2ccccc2)c1 [OptoNAM-1, (E)-2-(phenyldiazenyl)pyridin-4-amine]
endpoint unit: µM
IC50: 37

====

subject of test: GluN1/GluN2B NMDA receptors (UniProt P35439+Q01097)
Construct: expressed in transfected cells; host or cells: Xenopus laevis oocytes (nuclear cDNA injection)
protocol text: TEVC electrophysiology on Xenopus oocytes expressing wt GluN1/GluN2B NMDARs
Type: cell-based, rat GluN1, mouse GluN2B
conditions used: range over HEK cells and Xenopus oocytes; read-out: IC50 in the dark (trans isomer)
pIC50: −log10 of the molar value.

smi: c1ccc(/N=N/c2ccc(CCNc3ccncc3)cc2)cc1
subject of test: GluN1/GluN2B NMDA receptors (UniProt P35439+Q01097)
pIC50: 6.42 to 6.82
